# Assay target: human leukocyte elastase (HLE) (Homo sapiens)
# Sequence (P08246 30-267): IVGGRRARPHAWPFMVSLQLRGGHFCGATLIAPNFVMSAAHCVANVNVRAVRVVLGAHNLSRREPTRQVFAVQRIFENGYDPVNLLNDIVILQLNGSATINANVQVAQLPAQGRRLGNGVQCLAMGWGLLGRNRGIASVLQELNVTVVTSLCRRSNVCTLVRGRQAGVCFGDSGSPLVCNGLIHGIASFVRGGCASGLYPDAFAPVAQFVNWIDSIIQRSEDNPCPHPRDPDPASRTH
# Assay comment: Kinetic parameters of HLE inhibition, fluorogenic substrate N-methoxysuccinyl-alanyl-alanyl-prolyl-valyl-7-amido-4-methylcoumarin
# Assay setup: HLE (Calbiochem), 37°C, phosphate buffer pH 7.4, I= 0.15, 1% DMSO and 1% MeCN; apparent dissociation constant of HLE-inhibitor complex at steady state
Readout name: Ki (nM)
// note: answer is a bare numeric in nM

{"Molecule": "COC(=O)C1(/C=C\\C(=O)OC(C)(C)C)C(C)=CS(=O)(=O)[C@@H]2[C@@H](Cl)C(=O)N21 (stereo partly drawn)", "Ki [nM]": 64}

Exercise: Given the entry COC(=O)C1(C=CC(=O)OC(C)(C)C)C(C)=C(/C=C/C(=O)OC(C)(C)C)S(=O)(=O)[C@@H]2[C@@H](Cl)C(=O)N21 (stereo partly drawn) , report its measured Ki.
Key: 5.2

Exercise: Given the entry CO[C@H]1C(=O)N2C(C(=O)N3CCCC3)=C(CSc3nc(=O)c(O)nn3C)CS(=O)(=O)[C@H]12 [Reference compound, reference compound] , report its measured Ki.
Key: 140

Numbers sourced from patent EP0457381B1.
